- experimentalDetails: Inhibitory activity against histone deacetylase enzyme derived from partially purified extracts of Eimeria tenella protozoa using [3H]11 as radioligand
measurementType: pIC50
Give bare numbers, as −log10 of the molar value.

Just so you know, measured pIC50 for CCC(=O)CCCCC[C@@H]1NC(=O)[C@H]2CCCCN2C(=O)[C@H]([C@@H](C)CC)NC(=O)[C@H](C(=O)c2c[nH]c3ccccc23)NC1=O came out at 8.00

* * *

Give measured IC50 for each item. Keep answers brief.
- targetOrTestSystem: histone deacetylase enzyme from partially purified extracts of Eimeria tenella
- experimentalDetails: ChEBML_79057
Give bare numbers, in nM.

Look over these answered cases.
1. CCC(=O)CCCCC[C@@H]1NC(=O)[C@H]2CCCCN2C(=O)[C@H]([C@@H](C)CC)NC(=O)[C@H](Cc2c(-c3ccc4c(ccn4C)c3)[nH]c3ccccc23)NC1=O	25
2. CCC(=O)CCCCC[C@@H]1NC(=O)[C@H]2CCCCN2C(=O)[C@H]([C@@H](C)CC)NC(=O)[C@H](Cc2cn(C)c3ccccc23)NC1=O	5
3. CCC(=O)CCCCC[C@@H]1NC(=O)[C@H]2CCCCN2C(=O)[C@H]([C@@H](C)CC)NC(=O)[C@H](Cc2c(Br)[nH]c3ccccc23)NC1=O	200
4. CCC(=O)CCCCC[C@@H]1NC(=O)[C@H]2CCCCN2C(=O)[C@H]([C@@H](C)CC)NC(=O)[C@H](Cc2cn(CC)c3ccccc23)NC1=O	100

Go through the items and report each one's IC50.
1. CCCn1cc(C(O)c2nc(O)c(CCCCCC(=O)CC)[nH]c(O)c3n(c(O)c([C@@H](C)CC)[nH]c2=O)CCCC3)c2ccccc21 (stereo partly specified)
2. CCC(=O)CCCCC[C@@H]1NC(=O)[C@H]2CCCCN2C(=O)[C@H]([C@@H](C)CC)NC(=O)[C@H](Cc2cn(CC(=O)O)c3ccccc23)NC1=O
3. CCC(=O)CCCCC[C@@H]1NC(=O)[C@H]2CCCCN2C(=O)[C@H]([C@@H](C)CC)NC(=O)[C@H](CC2CN(OC)c3ccc(Br)cc32)NC1=O (stereo partly specified)

Ans.
1: 4; 2: 100; 3: 2500

Could you report IC50 for every entry in the following list?
1. CCC(=O)CCCCC[C@@H]1NC(=O)[C@H]2CCCCN2C(=O)[C@H]([C@@H](C)CC)NC(=O)[C@H](c2cnc3ccccc3c2N2CCCCC2)NC1=O
2. CCC(=O)CCCCC[C@@H]1NC(=O)[C@H]2CCCCN2C(=O)[C@H]([C@@H](C)CC)NC(=O)[C@H](c2cn(OC)c3ccccc3c2=O)NC1=O
3. CCC(=O)CCCCCc1[nH]c(O)c2n(c(O)c([C@@H](C)CC)[nH]c(=O)c(C(O)c3c[nH]c4ccccc34)nc1O)CCCC2 (stereo partly specified)
4. CCC(=O)CCCCC[C@@H]1NC(=O)[C@H]2CCCCN2C(=O)[C@H]([C@@H](C)CC)NC(=O)[C@H](Cc2c[nH]c3ccccc23)NC1=O

Ans.
1. 0.8
2. 4
3. 23
4. 1
